Target: human Mfn2 (Homo sapiens, UniProt O95140)
Construct: expressed in transfected cells; host or cells: HEK 293T
Sequence (O95140 whole entry): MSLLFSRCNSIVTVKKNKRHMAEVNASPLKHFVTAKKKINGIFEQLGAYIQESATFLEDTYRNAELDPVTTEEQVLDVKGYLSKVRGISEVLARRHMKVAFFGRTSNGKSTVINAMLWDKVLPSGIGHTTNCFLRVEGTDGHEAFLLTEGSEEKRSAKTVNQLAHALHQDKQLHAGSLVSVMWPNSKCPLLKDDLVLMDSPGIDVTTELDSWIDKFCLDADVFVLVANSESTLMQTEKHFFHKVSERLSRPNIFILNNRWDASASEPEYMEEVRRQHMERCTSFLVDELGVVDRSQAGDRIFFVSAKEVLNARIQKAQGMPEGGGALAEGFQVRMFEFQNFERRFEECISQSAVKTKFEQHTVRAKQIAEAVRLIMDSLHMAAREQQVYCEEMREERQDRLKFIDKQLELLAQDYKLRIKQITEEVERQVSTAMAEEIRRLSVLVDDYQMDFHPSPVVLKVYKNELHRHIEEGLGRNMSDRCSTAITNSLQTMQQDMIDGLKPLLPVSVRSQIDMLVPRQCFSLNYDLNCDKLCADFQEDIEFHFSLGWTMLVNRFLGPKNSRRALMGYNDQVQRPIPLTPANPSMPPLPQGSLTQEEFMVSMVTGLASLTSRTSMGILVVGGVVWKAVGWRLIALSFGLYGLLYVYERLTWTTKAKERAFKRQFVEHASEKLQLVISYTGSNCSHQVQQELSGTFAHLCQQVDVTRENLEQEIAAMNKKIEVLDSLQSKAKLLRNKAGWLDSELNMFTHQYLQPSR
Test: FRET-based Mfn2 biosensor (wild type) in HEK 293T cells
Format: cell-based
Design: concentration or dose not given beside the values
Settings: WT FRET-based Mfn2 biosensor, 2 h
The following compounds are listed with their measured % of FRET reduction values.
Give the quantity in %, number only.

These solved cases illustrate the format of a correct answer.
{"columns": ["compound", "resultType", "testResult"],
 "data": [
  ["Cc1ccc(-c2nnc(SC(C)C(=O)Nc3sc4c(c3C(N)=O)CCC4)n2-c2ccccc2)o1 (centres unmarked)", "% of FRET reduction", 13.9],
  ["CC(=O)NC12CC3CC(C1)CC(C(=O)NCCSCc1ccc(C)cc1)(C3)C2", "% of FRET reduction", "−4.6"],
  ["CC(c1cccc([N+](=O)[O-])c1)N(C)CC(=O)NCCSCc1ccccc1C#N (centres unmarked)", "% of FRET reduction", 0],
  ["NC(=O)c1c(NC(=O)CSc2nc(C3CC3)n(-c3ccccc3)n2)sc2c1CCC2", "% of FRET reduction", 37.0],
  ["CC(Sc1nnc2c(Cl)cc(C(F)(F)F)cn12)C(=O)Nc1sc2c(c1C(N)=O)CCC2 (centres unmarked)", "% of FRET reduction", 19.4]
]}

Any idea what its % of FRET reduction is? The compound is CC(C)Cn1c(SC(C)C(=O)Nc2sc3c(c2C(N)=O)CCC3)nnc1N1CCOCC1 (centres unmarked)
−1.4

Query (compound): O=C(CSCc1ccc(F)cc1)N1CCc2c([nH]c3ccccc23)C1c1ccc(Cl)cc1 (centres unmarked) ; field requested: % of FRET reduction
1.97

Recorded % of FRET reduction for Cn1c(SCC(=O)Nc2sc3c(c2C(N)=O)CCCC3)nnc1C1CC1 , please?
23.3

Could you share which % of FRET reduction value was measured for CC(Sc1nnc(-c2ccccc2)n1-c1ccccc1)C(=O)Nc1sc2c(c1C(N)=O)CCC2 (centres unmarked) ?
10.1

Give its % of FRET reduction value. Item: C=CCn1c(SCC(=O)Nc2sc3c(c2C(N)=O)CCC3)nnc1C1CCCCC1
17.7

Value lookup for % of FRET reduction; key = CC(Sc1nncn1-c1ccccc1)C(=O)Nc1sc2c(c1C(N)=O)CCC2 (centres unmarked)
16.5
